molecular target: C-Raf FL (full length CRAF with Y340E and Y341E activating mutations, co-expressed with h14-3-3 zeta) (Homo sapiens (Human), UniProt P04049, Y340E/Y341E); experiment: In vitro Raf activity determination, AlphaScreen p-MEK readout, c-Raf (C-Raf FL); conditions: c-Raf approximately 4 nM, ATP 1 μM, pre-incubation 60 minutes, reaction 1 hour
Sequence (P04049 whole entry Y340E/Y341E): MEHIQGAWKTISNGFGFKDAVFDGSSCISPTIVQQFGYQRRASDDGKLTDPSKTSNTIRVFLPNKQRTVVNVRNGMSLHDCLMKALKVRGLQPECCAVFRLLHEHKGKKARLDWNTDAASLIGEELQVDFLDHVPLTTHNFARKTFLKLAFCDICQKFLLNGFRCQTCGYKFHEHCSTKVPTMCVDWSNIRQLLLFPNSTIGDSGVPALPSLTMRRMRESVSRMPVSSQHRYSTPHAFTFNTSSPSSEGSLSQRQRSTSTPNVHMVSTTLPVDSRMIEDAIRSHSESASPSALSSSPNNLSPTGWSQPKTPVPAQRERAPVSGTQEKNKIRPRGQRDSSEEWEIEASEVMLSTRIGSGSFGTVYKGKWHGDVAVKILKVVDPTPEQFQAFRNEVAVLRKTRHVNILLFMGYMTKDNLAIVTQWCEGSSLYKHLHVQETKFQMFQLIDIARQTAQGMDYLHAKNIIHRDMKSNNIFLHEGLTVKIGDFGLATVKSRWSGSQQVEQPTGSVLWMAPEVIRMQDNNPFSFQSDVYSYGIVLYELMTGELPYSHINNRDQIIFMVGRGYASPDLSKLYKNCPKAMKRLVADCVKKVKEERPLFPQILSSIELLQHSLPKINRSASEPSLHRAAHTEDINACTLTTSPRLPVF
Sequence (P63104 whole entry partner): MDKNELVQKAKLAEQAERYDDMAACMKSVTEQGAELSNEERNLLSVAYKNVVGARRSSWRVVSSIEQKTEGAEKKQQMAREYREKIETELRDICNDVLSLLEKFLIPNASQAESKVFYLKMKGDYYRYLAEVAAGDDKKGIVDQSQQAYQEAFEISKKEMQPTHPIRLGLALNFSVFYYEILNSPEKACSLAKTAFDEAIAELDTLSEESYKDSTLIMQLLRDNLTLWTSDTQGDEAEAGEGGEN
Rule: measured IC50 below 0.2 nM gets True; anything equal to or greater than 0.2 nM gets False.

Worked examples, 2 molecules total:
molecule: CNC(=O)C1Cc2ccc(-c3cc(NC(=O)c4ccnc(C(F)(F)F)c4)ccc3C)cc2N2CCOCC12 (racemic)
assigned class: True
--
molecule: Cc1ccc(NC(=O)c2ccnc(C(F)(F)F)c2)cc1-c1cnc2c(c1)N1CCOC[C@H]1C(C)(C)[C@H]2N
assigned class: False

Query :: Confirm or reject: IC50 of Cc1ccc(NC(=O)c2cnnc(C(F)(F)F)c2)cc1-c1cc2c(cc1F)C[C@](F)(CO)[C@H]1COCCN21 lies strictly below 0.2 nM
Result :: True

Query :: Hello, I'm reviewing records and need to know if IC50 of Cc1ccc(NC(=O)c2ccnc(C(F)(F)F)c2F)cc1-c1cc2n(c(=O)c1)CC[C@@H]1COCCN21 is below 0.2 nM. Could you check?
Result :: False

Query :: Criterion: IC50 strictly below 0.2 nM. Is it met by Cc1ccc(NC(=O)c2ccnc(C(C)(F)F)c2)cc1-c1cnc2c(c1)N1CCOC[C@H]1C(F)(F)[C@@H]2O (racemic) ?
Result :: True

----------
molecular target: C-Raf FL (full length CRAF with Y340E and Y341E activating mutations, co-expressed with h14-3-3 zeta) (Homo sapiens (Human), UniProt P04049, Y340E/Y341E); experiment: In vitro Raf activity determination, AlphaScreen p-MEK readout, c-Raf (C-Raf FL); settings: c-Raf approximately 4 nM, ATP 1 μM, pre-incubation 60 minutes, reaction 1 hour
metric: IC50 (nM)
Write it as a number; the unit nM goes unstated.

// worked examples, IC50 included
compound: Cc1ccc(NC(=O)c2ccnc(C(F)(F)F)c2)cc1-c1ccc2c(c1)N1CCOCC1C(CO)(CO)C2 (racemic) [Example 49]
IC50 (nM): 0.021
--
compound: CCN1C(=O)C2COCC[C@]2(C)c2cc(-c3cc(NC(=O)c4cncc(C(F)(F)F)c4)ccc3C)cnc21 (stereo in doubt) [Example 345]
IC50 (nM): 0.8
--
compound: Cc1ccc(NC(=O)c2ccnc(C(F)(F)F)c2F)cc1-c1cnc2c(c1)N1CCOC[C@H]1C[C@H]2OCCO [Example 510]
IC50 (nM): 0.1

Query :: Endpoint output: IC50 of Cc1ccc(NC(=O)c2cnnc(C(F)(F)F)c2)cc1-c1cnc2c(c1)N1CCOC[C@H]1CC(=O)N2CCO [Example 323] . Value?
Result :: 0.2

Query :: So what does the record say about IC50 for CCN1C(=O)[C@H]2[C@@H]3COC[C@@H]3[C@H]2c2cc(-c3cc(NC(=O)c4ccnc(C(F)(F)F)c4)ccc3C)cnc21 [Example 270] ?
Result :: 0.2

----------
target: C-Raf FL (full length CRAF with Y340E and Y341E activating mutations, co-expressed with h14-3-3 zeta) (Homo sapiens (Human), UniProt P04049, Y340E/Y341E); experiment: In vitro Raf activity determination, AlphaScreen p-MEK readout, c-Raf (C-Raf FL); settings: c-Raf approximately 4 nM, ATP 1 μM, pre-incubation 60 minutes, reaction 1 hour
Collected pIC50 values appear next to each entry.
When answering, recall that pIC50 equals minus log10 of the concentration in mol/L, and write that number alone.

The following compounds have reported results that may help.
compound: Cc1ncc(NC(=O)c2cccc(C(F)(F)F)c2)cc1-c1ccc2c(c1)N1CCOC[C@H]1[C@](F)(CN)C2
pIC50: 8.59
--
compound: COC1CC2COCCN2c2cc(-c3cc(NC(=O)c4ccnc(C(F)(F)F)c4)ccc3C)cnc21 (racemic)
pIC50: 11.06
--
compound: Cc1ccc(NC(=O)c2ccnc(C(F)(F)F)c2)cc1-c1cnc2c(c1)C1C3COCC3C1C(=O)N2CCO (stereo not shown) [Example 278]
pIC50: 9.52
--
compound: CCN1Cc2nncn2-c2cc(-c3cc(NC(=O)c4ccnc(C(F)(F)F)c4)ccc3C)cnc2C1=O
pIC50: 8.02
--
compound: CC(=O)N[C@H]1c2ncc(-c3cc(NC(=O)c4ccnc(C(F)(F)F)c4)ccc3C)cc2N2CCOC[C@H]2C1(C)C
pIC50: 8.64

Query :: Param item = Cc1ccc(NC(=O)c2ccnc(C(F)(F)F)c2F)cc1-c1cnc2c(c1)N1CCOC[C@H]1CC(=O)N2CCO ; retrieve measured pIC50.
Result :: 9.52

Query :: Report pIC50 for Cc1ccc(NC(=O)c2cnnc(C(F)(F)F)c2)cc1-c1cc(F)c2c(c1)N1CCOC[C@@H]1[C@](F)(CO)C2 please.
Result :: 10.00

----------
biological target: C-Raf FL (full length CRAF with Y340E and Y341E activating mutations, co-expressed with h14-3-3 zeta) (Homo sapiens (Human), UniProt P04049, Y340E/Y341E); assay: In vitro Raf activity determination, AlphaScreen p-MEK readout, c-Raf (C-Raf FL); conditions: c-Raf approximately 4 nM, ATP 1 μM, pre-incubation 60 minutes, reaction 1 hour
In plain terms, low IC50, meaning strictly below 0.08 nM, gives YES, and everything else gives NO.

Example entries and their recorded answers appear below.
molecule: CC(=O)NC1CC2COCCN2c2cc(-c3cc(NC(=O)c4ccnc(C(F)(F)F)c4)ccc3C)ccc21 (racemic)
assigned class: NO
--
molecule: Cc1ccc(NC(=O)c2ccnc(C(C)(F)F)c2)cc1-c1ccc2c(c1)N1CCOC[C@@H]1C[C@@H]2O (single isomer, unassigned)
assigned class: YES
--
molecule: Cc1ccc(NC(=O)c2ccnc(C(F)(F)F)c2)cc1-c1ccc2c(=O)c(C(=O)O)c3n(c2c1)CCOC3
assigned class: NO
--
molecule: Cc1ccc(NC(=O)c2ccnc(C(C)(F)F)c2)cc1-c1cnc2c(c1)N1CCOC[C@H]1[C@@](C#N)(CF)C2
assigned class: NO
--
molecule: CCN1C(=O)[C@H]2[C@@H]3COC[C@@H]3[C@H]2c2cc(-c3cc(NC(=O)c4cccc(C(F)(F)F)c4)cnc3C)cnc21
assigned class: NO

Query :: Is 0.08 nM strictly greater than the molecule's reported IC50? molecule: CCN1C(=O)C2CCOCCC2c2cc(-c3cc(NC(=O)c4ccnc(C(F)(F)F)c4)ccc3C)cnc21 (centres unmarked) [Example 249]
Result :: NO

Query :: # strict comparison: is reported IC50 < 0.08 nM? input = Cc1ccc(NC(=O)c2ccnc(C(F)(F)F)c2)cc1-c1cnc2c(c1)N1CCOC[C@H]1C(F)(F)[C@H]2O
Result :: YES

----------
Items are presented alongside their recorded pIC50.
target: C-Raf FL (full length CRAF with Y340E and Y341E activating mutations, co-expressed with h14-3-3 zeta) (Homo sapiens (Human), UniProt P04049, Y340E/Y341E); experiment: In vitro Raf activity determination, AlphaScreen p-MEK readout, c-Raf (C-Raf FL); conditions: c-Raf approximately 4 nM, ATP 1 μM, pre-incubation 60 minutes, reaction 1 hour
Here pIC50 is given on a logarithmic scale as minus log10 of the concentration in mol/L.

Some compounds with known pIC50 results, for comparison:
compound: Cc1ccc(NC(=O)c2ccnc(C(F)(F)F)c2)cc1-c1cnc2c(c1)N1CCOC[C@@H]1[C@H](C(C)(C)O)C2
pIC50: 9.70

compound: Cc1ccc(NC(=O)c2ccnc(C(F)(F)F)c2F)cc1-c1cnc2c(c1)N1CCOCC1C(C)(C)C2O (centres unmarked) [Example 337]
pIC50: 9.52

compound: Cc1ccc(NC(=O)c2ccnc(C(F)(F)F)c2F)cc1-c1cnc2c(c1)N1CCOCC1C(C)(C)C2O (centres unmarked) [Example 336]
pIC50: 9.70

compound: CCN1C(=O)OC2COCCC2c2cc(-c3cc(NC(=O)c4ccnc(C(F)(F)F)c4)ccc3C)cnc21 (centres unmarked)
pIC50: 9.70

compound: CCN1C(=O)[C@@H]2COCC[C@H]2c2cc(-c3cc(NC(=O)c4cncc(C(F)(F)F)c4)ccc3C)cnc21
pIC50: 10.00

Query :: Query (compound): Cc1ccc(NC(=O)c2ccnc(C(C)(F)F)c2)cc1-c1ccc2c(c1)N1CCOC[C@@H]1C[C@H]2O (single isomer, unassigned) ; field requested: pIC50
Result :: 10.60

Query :: Could you tell me which pIC50 is on file for CCN1C(=O)[C@@H]2[C@H]3COC[C@H]3[C@@H]2c2cc(-c3cc(NC(=O)c4cccc(C(F)(F)F)c4)cnc3C)cnc21 ?
Result :: 9.30

Query :: Sample Cc1ccc(NC(=O)c2ccnc(C(C)(F)F)c2)cc1-c1cnc2c(c1)N1CCOC[C@@H]1[C@H](C(C)(C)O)C2 — what was its pIC50?
Result :: 9.70
